Attribution: patent US20110065632A1

molecular target: hUTII (Homo sapiens, UniProt Q9UKP6); test: hUTII inhibition constant; assay type: binding; details: read-out: hUTII Ki
Sequence (Q9UKP6 whole entry): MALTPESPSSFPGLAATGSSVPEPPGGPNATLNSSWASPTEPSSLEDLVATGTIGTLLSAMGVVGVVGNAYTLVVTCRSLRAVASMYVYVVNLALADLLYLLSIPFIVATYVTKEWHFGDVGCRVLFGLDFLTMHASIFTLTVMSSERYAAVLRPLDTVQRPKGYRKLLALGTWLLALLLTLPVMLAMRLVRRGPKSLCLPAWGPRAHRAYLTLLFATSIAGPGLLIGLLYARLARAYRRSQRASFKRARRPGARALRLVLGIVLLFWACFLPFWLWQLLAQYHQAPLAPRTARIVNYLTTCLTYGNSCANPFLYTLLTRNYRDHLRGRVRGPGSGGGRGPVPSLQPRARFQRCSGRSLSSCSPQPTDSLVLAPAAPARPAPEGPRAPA
Reported Ki by item:
Field: value (include unit after the number)

CC[C@@H]1NC(=O)[C@H](CCCCN)NC(=O)[C@@H](Cc2c[nH]c3ccccc23)NC(=O)[C@H](Cc2ccc(O)cc2)NC(=O)[C@@H](NC(=O)[C@@H](Cc2ccccc2)NC(=O)COCCOCCNC(=O)CSC[C@@H]2C[C@@H]3c4cccc5[nH]cc(c45)C[C@H]3N(C)C2)CSSC[C@@H](C(=O)N[C@H](C(N)=O)[C@@H](C)O)NC1=O
223 nM

Asked: Value lookup for Ki; key = CCNC(=O)N(CCCN(C)CC(=O)N[C@H](Cc1ccccc1)C(=O)N[C@H]1CSSC[C@@H](C(=O)N[C@H](C(N)=O)[C@@H](C)O)NC(=O)[C@H](CC)NC(=O)[C@H](CCCCN)NC(=O)[C@@H](Cc2c[nH]c3ccccc23)NC(=O)[C@H](Cc2ccc(O)cc2)NC1=O)C(=O)[C@H]1CN[C@@H]2Cc3c[nH]c4cccc(c34)[C@H]2C1
Given back: 695 nM

Asked: Value lookup for Ki; key = C=CCN1C[C@H](C(=O)N(CCCN(C)CC(=O)N[C@H](Cc2ccccc2)C(=O)N[C@H]2CSSC[C@@H](C(=O)N[C@H](C(N)=O)[C@@H](C)O)NC(=O)[C@H](CC)NC(=O)[C@H](CCCCN)NC(=O)[C@@H](Cc3c[nH]c4ccccc34)NC(=O)[C@H](Cc3ccc(O)cc3)NC2=O)C(=O)NCC)C[C@@H]2c3cccc4[nH]cc(c34)C[C@H]21
Given back: 677 nM
